test system: ROCK1; conditions: Compound Concentration (nM):1000;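 also: KINOMEscan scanMAX binding as percent activity remaining versus control; lower means stronger binding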
Give Percent Control for every item shown.
Give bare numbers, in %.

Take a look at these entries with their results.
{"Compound": "COc1cccc(-c2c[nH]c3c(N/N=C/c4ccncc4)ncnc23)c1 [GW814408X]", "Target": "ROCK1", "Percent Control [%]": 79}
{"Compound": "NS(=O)(=O)c1ccc(N/N=C2\\C(=O)Nc3ccc(C(=O)NCc4ccncc4)cc32)cc1 [GW300657X]", "Target": "ROCK1", "Percent Control [%]": 64}
{"Compound": "Cc1cc(O)cc(C)c1/C=C/c1cncc(C(N)=O)c1 [GW435821X]", "Target": "ROCK1", "Percent Control [%]": 100}
{"Compound": "COc1cc(N2CCN(C(C)C)CC2)ccc1Nc1nc(Nc2ccc(F)cc2C(=O)NC[C@@H](O)CO)c2cc[nH]c2n1 [GSK1392956A]", "Target": "ROCK1", "Percent Control [%]": 87}
{"Compound": "COc1cc2ncn(-c3cc(O[C@H](C)c4ccccc4Cl)c(C(N)=O)s3)c2cc1OC [GSK237701A]", "Target": "ROCK1", "Percent Control [%]": 69}
{"Compound": "COc1ccc2cc(-c3c(-c4ccncc4)nc(-c4ccc(S(C)(=O)=O)cc4C)n3C)ccc2c1", "Target": "ROCK1", "Percent Control [%]": 78}

Batch lookup, Percent Control per entry.
1. NS(=O)(=O)c1ccc(N/N=C2\C(=O)Nc3ccc(Cl)cc32)cc1 [GW280670X]
2. NS(=O)(=O)c1ccc(Nc2ncc(-c3ccccc3)o2)cc1 [GW572399X]

[A]
1: 100; 2: 85
